# systemName: Human Carboanhydrase I (Homo sapiens, UniProt P00915)
# Sequence (P00915 whole entry): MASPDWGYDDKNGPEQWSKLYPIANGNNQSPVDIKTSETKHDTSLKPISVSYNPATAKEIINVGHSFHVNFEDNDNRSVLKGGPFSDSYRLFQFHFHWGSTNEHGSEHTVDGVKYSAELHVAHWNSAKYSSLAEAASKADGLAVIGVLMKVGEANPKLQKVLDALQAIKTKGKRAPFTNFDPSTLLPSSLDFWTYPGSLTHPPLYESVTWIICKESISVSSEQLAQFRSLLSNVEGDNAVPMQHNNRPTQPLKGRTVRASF
# protocolDescription: Carboanhydrase I inhibition (CO2 hydration)
# Assay type: biochemical
# Experimental: Carboanhydrases catalyze the CO2 hydration. Test preparation: A constant CO2 stream is directed by a buffer that was mixed with carboanhydrase I. The time that is required to reduce the pH within defined limits is a measuring parameter. This parameter reflects the formation of H2CO3 in the medium. IC50 inhibiting values are determined by test substances being pipetted into the test preparation.
pIC50: −log10 of the molar value.
metricName: pIC50

* C[C@]12CC[C@H]3[C@@H](CCC4=CC(=O)CC[C@@]43C)[C@@H]1CC[C@@H]2OC(=O)c1ccc(S(N)(=O)=O)cc1 [Compound 1] | 6.43
* C[C@]12CC[C@H]3[C@@H](CCC4=CC(=O)CC[C@@]43C)[C@@H]1CC[C@@H]2OC(=O)c1cccc(S(N)(=O)=O)c1 [Compound 5] | 6.06
* C[C@@H]1CC2=CC(=O)CC[C@@H]2[C@H]2CC[C@]3(C)[C@@H](OC(=O)c4cccc(S(N)(=O)=O)c4)CC[C@H]3[C@@H]21 [Compound 12] | 6.22
